For each of the compounds below, state its pIC50.
- system: VEGFR3 cytoplasmic domain (Homo sapiens)
- Sequence (P35916 798-1298 isoform P35916-1): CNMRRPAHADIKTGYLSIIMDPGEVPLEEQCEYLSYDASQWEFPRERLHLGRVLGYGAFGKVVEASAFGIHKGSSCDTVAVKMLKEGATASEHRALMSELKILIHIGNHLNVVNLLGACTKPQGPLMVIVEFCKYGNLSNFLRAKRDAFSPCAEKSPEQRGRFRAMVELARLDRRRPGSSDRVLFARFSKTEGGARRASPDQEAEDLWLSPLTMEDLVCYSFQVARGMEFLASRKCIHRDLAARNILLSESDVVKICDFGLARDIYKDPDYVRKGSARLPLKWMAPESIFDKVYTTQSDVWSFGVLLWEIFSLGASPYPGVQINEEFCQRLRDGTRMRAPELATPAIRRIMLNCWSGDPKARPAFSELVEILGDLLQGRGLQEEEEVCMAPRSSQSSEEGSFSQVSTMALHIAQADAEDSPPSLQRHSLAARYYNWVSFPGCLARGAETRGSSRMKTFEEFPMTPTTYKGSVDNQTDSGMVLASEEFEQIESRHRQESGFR
- test.details: VEGFR3 Biochemical Assay (AlphaScreen)
- measurement.parameters: GST-fusion enzyme, 500 μM ATP, 90 minutes at 30 degree Celsius (modified form in some cases: Hexa-His-fusion enzyme, 1 μM ATP); read-out: IC50
Reminder that pIC50 is minus the log10 of a molar concentration.

q: For the compound CC(C(N)=O)c1ccccc1CCc1nc(Nc2cccnc2)ncc1Cl (stereo not shown) , give its reported pIC50.
a: 7.36

q: For the compound CC(C(N)=O)c1ccccc1CCc1nc(Nc2ccc(C3CCNCC3)nc2)ncc1Cl (stereo not shown) , give its reported pIC50.
a: 7.51

q: For the compound CC(C(N)=O)c1ccccc1CCc1nc(Nc2cnn(C3CCNCC3)c2)ncc1Cl (stereo not shown) , give its reported pIC50.
a: 7.92

q: For the compound CC(C(N)=O)c1ccccc1CCc1nc(Nc2cnn(C)c2)ncc1C(F)(F)F (stereo not shown) , give its reported pIC50.
a: 7.82

q: For the compound `NC(=O)C1(c2ccccc2CCc2nc(Nc3cnn(CC(F)(F)F)c3)ncc2Cl)CC1` , give its reported pIC50.
a: 8.10

q: For the compound `COCCn1cc(Nc2ncc(Cl)c(CCc3ccccc3C3(C(N)=O)CC3)n2)cn1` , give its reported pIC50.
a: 8.52

q: For the compound `NC(=O)C1(c2ccccc2CCc2nc(Nc3ccc(C4CCNCC4)cc3)ncc2C(F)(F)F)CC1` , give its reported pIC50.
a: 8.00

q: For the compound CC(N)c1ccc(Nc2ncc(Cl)c(CCc3ccccc3C3(C(N)=O)CC3)n2)cc1 (stereo not shown) [Compound 24A] , give its reported pIC50.
a: 7.85

q: For the compound `NC(=O)C1(c2ccccc2CCc2nc(Nc3cnn(C4CCNCC4)c3)ncc2Cl)CC1` , give its reported pIC50.
a: 8.05

q: For the compound CCC(C(N)=O)c1ccccc1CCc1nc(Nc2ccc(C3CCNCC3)cc2)ncc1C(F)(F)F (single isomer, unassigned) [Compound 1-1A] , give its reported pIC50.
a: 6.99

----------
- system: VEGFR2 (Homo sapiens)
- Sequence (P35968 20-1356): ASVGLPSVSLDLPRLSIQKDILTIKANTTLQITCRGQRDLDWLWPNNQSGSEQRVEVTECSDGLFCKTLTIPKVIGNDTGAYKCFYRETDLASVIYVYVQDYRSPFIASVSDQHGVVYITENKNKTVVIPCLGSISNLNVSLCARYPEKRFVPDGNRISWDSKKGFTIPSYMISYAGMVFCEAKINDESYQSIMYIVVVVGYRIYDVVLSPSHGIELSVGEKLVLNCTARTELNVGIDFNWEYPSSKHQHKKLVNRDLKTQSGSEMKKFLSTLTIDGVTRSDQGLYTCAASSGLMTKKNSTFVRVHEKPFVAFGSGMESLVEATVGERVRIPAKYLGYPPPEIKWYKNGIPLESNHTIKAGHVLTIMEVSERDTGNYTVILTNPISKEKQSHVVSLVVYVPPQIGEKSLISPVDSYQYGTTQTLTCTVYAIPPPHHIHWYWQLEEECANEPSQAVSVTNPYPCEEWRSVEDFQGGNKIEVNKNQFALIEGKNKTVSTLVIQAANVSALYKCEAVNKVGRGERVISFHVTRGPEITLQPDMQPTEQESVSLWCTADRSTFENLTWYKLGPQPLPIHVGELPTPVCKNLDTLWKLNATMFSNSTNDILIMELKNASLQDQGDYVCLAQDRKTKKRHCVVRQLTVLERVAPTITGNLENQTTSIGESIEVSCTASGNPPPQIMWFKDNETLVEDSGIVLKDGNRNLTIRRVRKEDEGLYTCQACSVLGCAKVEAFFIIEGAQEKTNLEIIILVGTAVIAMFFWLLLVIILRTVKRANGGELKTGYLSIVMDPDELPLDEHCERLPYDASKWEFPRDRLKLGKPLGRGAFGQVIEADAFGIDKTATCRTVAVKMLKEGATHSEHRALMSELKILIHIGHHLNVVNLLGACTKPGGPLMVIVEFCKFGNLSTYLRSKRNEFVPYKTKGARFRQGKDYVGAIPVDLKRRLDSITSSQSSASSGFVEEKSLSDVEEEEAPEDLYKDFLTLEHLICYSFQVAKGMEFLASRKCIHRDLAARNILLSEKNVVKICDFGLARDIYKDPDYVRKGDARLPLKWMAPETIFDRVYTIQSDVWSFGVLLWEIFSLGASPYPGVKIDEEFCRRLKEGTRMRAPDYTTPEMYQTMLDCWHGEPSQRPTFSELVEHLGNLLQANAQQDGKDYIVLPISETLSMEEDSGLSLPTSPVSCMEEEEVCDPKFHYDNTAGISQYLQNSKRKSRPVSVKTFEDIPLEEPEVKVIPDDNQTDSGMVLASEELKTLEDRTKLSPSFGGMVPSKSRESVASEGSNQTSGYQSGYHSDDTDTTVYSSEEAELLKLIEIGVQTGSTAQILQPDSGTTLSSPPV
- test.details: VEGFR2 Phospho ELISA Assay
- measurement.parameters: HUVEC, treated for 1 hour, VEGF stimulated; phospho VEGFR2 relative to Total VEGFR2
For each of the molecules below, state its IC50.
Please give the number followed by its unit.

q: For the molecule `CN1CCC(c2ccc(Nc3ncc(Cl)c(CCc4ccccc4C4(C(N)=O)CC4)n3)cc2)CC1` , give its reported IC50.
a: 897 nM

q: For the molecule `NC(=O)C1(c2ccccc2CCc2nc(Nc3ccc(C4CNC4)cc3)ncc2C(F)(F)F)CC1` , give its reported IC50.
a: 2040 nM

q: For the molecule `NC(=O)C1(c2ccccc2CCc2nc(Nc3cnn(C4CCNCC4)c3)ncc2Cl)CC1` , give its reported IC50.
a: 393 nM

q: For the molecule `NC(=O)C1(c2ccccc2CCc2nc(Nc3cccnc3)ncc2Cl)CC1` , give its reported IC50.
a: 6610 nM

q: For the molecule `CN1CCC(n2cc(Nc3ncc(Cl)c(CCc4ccccc4C4(C(N)=O)CC4)n3)cn2)CC1` , give its reported IC50.
a: 21 nM

q: For the molecule `NC(=O)C1(c2ccccc2CCc2nc(Nc3cn[nH]c3)ncc2Cl)CC1` , give its reported IC50.
a: 248 nM

q: For the molecule CC(C(N)=O)c1ccccc1CCc1nc(Nc2cnn(C3CCN(C)CC3)c2)ncc1Cl (centres unmarked) , give its reported IC50.
a: 138 nM

q: For the molecule `NC(=O)C1(c2ccccc2CCc2nc(Nc3cnn(C4CNC4)c3)ncc2Cl)CC1` , give its reported IC50.
a: 357 nM
